Target: T1, TNFR2-His (Sino Biological, 10417-H08H, NP_001057.1 Met1-Asp257, with multi-histidine tag expressed on … (human, UniProt P20333 23-257))
T1 construct: range 1-257; Bought protein; also called recombinant human TNFR2 protein; TNFR2-His antigen; not shown: C-terminal multi-histidine tag
T1 sequence (looked up): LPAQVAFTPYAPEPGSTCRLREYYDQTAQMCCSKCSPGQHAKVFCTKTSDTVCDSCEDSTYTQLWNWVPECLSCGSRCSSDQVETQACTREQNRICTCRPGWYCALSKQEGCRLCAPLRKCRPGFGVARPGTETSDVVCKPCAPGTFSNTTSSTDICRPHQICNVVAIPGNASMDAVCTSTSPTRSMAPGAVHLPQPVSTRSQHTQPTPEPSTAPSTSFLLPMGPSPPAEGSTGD
Test: BLI, antibody captured on AHC probe, TNFR2-His in solution
Assign class 1 whenever kon does not fall below 90000 M⁻¹ s⁻¹; assign class 0 whenever it does.

### Prompt Threshold query (kon >= 90000 M⁻¹ s⁻¹) on 33C12huVH2 + huVL1(P07299) (antibody, V domains shown, Humanized 33C12) VH: EVQLVESGGGLVKPGGSLRLSCAASGFTFSDYTMSWVRQAPGKGLEWVATISTGGSYTYYPDSVKGRFTISRDNAKNTLYLQMSSLRAEDTAVYYCARDGGYDGDYFDYWGQGTTVTVSS VL: ENVLTQSPATLSLSPGERATMSCRASSSVSSSYLHWYQQKPGQAPRLWIYRTSNLASGVPARFSGSGSGTDYTLTISRVEPEDFAVYYCQQYSGYPLTFGGGTKLEIK
### Response class 0

### Prompt Threshold query (kon >= 90000 M⁻¹ s⁻¹) on 33C12huVH3 + huVL3(P07304) (antibody, V domains shown, Humanized 33C12) VH: EVQLVESGGGLVKPGGSLRLSCAASGFTFSDYTMSWVRQAPGKGLEWVATISTGGSYTYYADSVKGRFTISRDNAKNSLYLQMNSLRAEDTAVYYCARDGGYDGDYFDYWGQGTTVTVSS VL: EIVLTQSPATLSLSPGERATLSCRASSSVSSSYLHWYQQKPGQAPRLLIYRTSNLATGIPDRFSGSGSGTDFTLTISRLEPEDFAVYYCQQYSGYPLTFGGGTKLEIK
### Response class 0

### Prompt Threshold query (kon >= 90000 M⁻¹ s⁻¹) on 33C12huVH3 + huVL1(P07300) (antibody, V domains shown, Humanized 33C12) VH: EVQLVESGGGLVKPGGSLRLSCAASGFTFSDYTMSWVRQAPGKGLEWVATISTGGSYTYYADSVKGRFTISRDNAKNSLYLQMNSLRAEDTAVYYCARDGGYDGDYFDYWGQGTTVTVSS VL: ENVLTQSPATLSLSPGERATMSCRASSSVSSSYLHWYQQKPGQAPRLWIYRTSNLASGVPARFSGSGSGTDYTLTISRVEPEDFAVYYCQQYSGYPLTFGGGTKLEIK
### Response class 1

### Prompt Threshold query (kon >= 90000 M⁻¹ s⁻¹) on 33C12huVH1 + huVL1(P07298) (antibody, V domains shown, Humanized 33C12) VH: DVQLVESGGGLVKPGGSLRLSCAASGFTFSDYTMSWVRQAPGKGLEWVATISTGGSYTYYPDSVKGRFTISRDNAKNTLYLQMSSLRAEDTAVYYCTRDGGYDGDYFDYWGQGTTVTVSS VL: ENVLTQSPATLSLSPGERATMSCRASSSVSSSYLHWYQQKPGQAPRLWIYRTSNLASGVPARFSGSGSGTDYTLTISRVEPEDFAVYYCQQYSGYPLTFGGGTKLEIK
### Response class 1
